Reference for the values: PubChem BioAssay (NCI)

- System: OVCAR-4 ovarian
- experiment: NCI tumour cell line growth inhibition, 48 h; in the data active means GI50 below about 0.43 µM; inactive means the rest
Pick one and only one: 1.0 for active, 0.0 for inactive

Each molecule tested received a call. Report the one for COc1c(C)c2c(c(O)c1C/C=C(\C)CCC(=O)O)C(=O)OC2 .
0.0

What call does the record list for CC(C)(C)c1ccc(Oc2nccc(-c3c(-c4ccc(F)cc4)ncn3C3CCNCC3)n2)cc1 ?
0.0

# lookup: test call for CC/C=C1/C(=O)C=C[C@@H]1C/C=C\CCCC(=O)OC
0.0

Field: outcome | Entry: Cc1nn2c(/C=C3\C(=O)Nc4ccc(Cl)cc43)c(C)nc2s1
0.0

Which outcome did this test record for the molecule COc1cc([N+](=O)[O-])c(OC)cc1-c1nc2sc(Cl)cn2c1/C(N)=N/C(=N)N ?
0.0

Which outcome was entered for the molecule O=C1Nc2ccccc2/C1=C/C(=O)c1coc2c1C(=O)c1ccccc1C2=O in this test?
0.0

Hey, what did the test say about C=C1C(=O)O[C@H]2[C@H]1CC/C(COC(=O)NCc1ccc(Cn3c(=O)sn(CCCl)c3=O)cc1)=C\CC[C@@]1(C)O[C@@H]21 ?
0.0

Could you please tell me the result logged for CN[C@@H](C)C(=O)N[C@H](C(=O)N1CCC[C@H]1C(=O)Nc1snnc1-c1ccccc1)C1CCCCC1 in this assay?
0.0

###

- Tested on: TK-10 renal
- experiment: NCI tumour cell line growth inhibition, 48 h
assayReadout: GI50

- smilesCode: "COc1cc(/C=C/C(=O)c2cccc(Nc3nc(Nc4ccccc4)nc(Nc4ccccc4)n3)c2)cc(OC)c1OC"
  GI50: "63900 nM"

Just so you know, measured GI50 for COc1ccc2cc(C(=O)/C=C/c3ccc(Cl)cc3Cl)ccc2c1 came out at 27700 nM

Just so you know, measured GI50 for Cc1cc2c(cc1C)N(C(=O)CCl)CC(=O)N2 came out at 2110 nM

CCN(CC)CCCCNc1c2ccccc2[n+](C)c2c1[nH]c1ccccc12 has a reported GI50 of 2520 nM

###

- Tested on: OVCAR-5 ovarian
- experiment: NCI tumour cell line growth inhibition, 48 h
assayReadout: GI50

Answered examples (2):
- smilesCode: "CCCCCCCCCCCCCCCCCCOc1ccccc1CC(=O)OCC[N+]1(C)CCCCC1"
  GI50: "2320 nM"
- smilesCode: "COc1ccc(/C(COc2ccc3c(=O)cc(-c4ccccc4)oc3c2)=N\\O)cc1"
  GI50: "402 nM"

Next compound, GI50 to be filled in.
Measured GI50, COc1ccc(-c2cn(-c3cc(OC)c(OC)c(OC)c3)c(SCc3ccccc3)n2)cc1OC : > 100000 nM

###

- Test system: UACC-257 melanoma
- experiment: NCI tumour cell line growth inhibition, 48 h
Listing of entries alongside the reported TGI.

Sample answers from the record:
- compound: "COc1cc2ccc(/C=C\\[N+](=O)[O-])cc2cc1OC"
  reported: "> 22.9 µM"
- compound: "CCOC(=O)C1=C(C)OC2(O)C=CC(O)=C3C(=O)N(c4ccccc4)C(=O)C312 (stereo unspecified)"
  reported: "99.4 µM"
- compound: "O=c1oc2ccc3ccccc3c2cc1-c1cn2ccccc2n1"
  reported: "> 100 µM"
- compound: "CCSc1[nH]c(NC(=S)NC(=O)c2ccccc2Cl)c(C(N)=O)c1C(N)=O"
  reported: "> 10 µM"
- compound: "COc1cc(O)c2c(=O)cc(-c3ccc(O)cc3O)oc2c1CC=C(C)C"
  reported: "86.6 µM"
- compound: "CN1C(=Nc2ccccc2)SC1=Nc1ccccc1"
  reported: "> 100 µM"
- compound: "O=C1CCC2C(O)c3cc4c(cc3C(c3ccc5c(c3)OCO5)N12)OCO4 (stereo unspecified)"
  reported: "> 100 µM"
- compound: "COc1ccc(-c2nc(-c3nc4ccc(OC)cc4[nH]3)c3ccccn23)cc1"
  reported: "26.1 µM"

Entry C/C(CC(=O)Nc1ccc([N+](=O)[O-])cc1)=N\NC(N)=O ; TGI = > 100 µM

// recorded TGI for OC1(c2cccs2)c2cccc(Cl)c2C(O)(c2cccs2)c2c(Cl)cccc21 (stereo unspecified) : > 100 µM

CCOc1cc(NC(C)=O)ccc1C(=O)NN1C(=O)C(Cl)C1c1ccccc1 (stereo unspecified) yielded TGI of 28 µM

GET /value?item= C=CCNC1=C2C[C@@H](C)C[C@@H](OC)[C@H](OC(=O)CCN)[C@H](C)/C=C(\C)[C@@H](OC(N)=O)[C@H](OC)/C=C\C=C(/C)C(=O)NC(=CC1=O)C2=O &field=TGI returns 10.3 µM

// C=C1CCC2C3(C)COC(c4ccc(N(C)C)cc4)OC3CCC2(C)C1C/C=C1/C(=O)OCC1O (stereo unspecified) : TGI value = 26.8 µM

Lab note: Cc1ccc2c(c1)[nH]c(=S)n2/C=C1\C(=O)Oc2ccccc2C1=O gave TGI of > 100 µM

###

- Tested on: UACC-62 melanoma
- experiment: NCI tumour cell line growth inhibition, 48 h
*1 amine or outer side, *2 acyl side, *3 side chain or, on linkers, in order; H or OH if unused. Where a SMILES comes first, the peptide text is derived from it. [ ]: non-standard residue; d: D form. The star is where a group is joined. X31 = CC(=O)N(C)SCC(N[*:1])C(=O)[*:2]; Cbz = O=C(OCc1ccccc1)*; Bn = c1ccc(C*)cc1; For = O=C*
assayReadout: TGI

Completed entries (count: 4):
- compound: "COc1cc(/C=C2/C(=O)N(C(=O)OCC(C)C)C(Cc3cc(OC)c(OC)c(C)c3OC)C(=O)N2Cc2ccccc2)c(OC)c(C)c1OC (centres undefined)"
  TGI: "> 100 µM"
- compound: "COc1cc2ccc(/C=C\\[N+](=O)[O-])cc2cc1OC"
  TGI: "21.7 µM"
- compound: "Clc1ccc(C2SCc3nc4ccccc4n32)c(Cl)c1 (centres undefined)"
  TGI: "32 µM"
- compound: "CC(=O)N(C)SCC(NC(=O)C(Cc1ccccc1)NC(=O)OCc1ccccc1)C(=O)NC(Cc1ccccc1)C(=O)NC(Cc1cn(C=O)c2ccccc12)C(=O)NC(CCCCNC(=O)OCc1ccccc1)C(=O)NC(C(=O)NC(CSN(C)C(C)=O)C(=O)NC(C(N)=O)C(C)OCc1ccccc1)C(C)OCc1ccccc1 (centres undefined) (Cbz-F[X31]FW(For)K(Cbz)T(Bn)[X31]T(Bn)-NH2; configuration not given here)"
  TGI: "> 100 µM"

Value of measured TGI for the entry O=C1C(Cl)C2(CC(/C=C/c3ccccc3Cl)=NN2c2cccc(S(=O)(=O)O)c2)N1c1nc2ccccc2s1 (centres undefined) : > 100 µM

GET /value?item= COc1cc([N+](=O)[O-])c(OC)cc1-c1nc2sc(Cl)cn2c1/C(N)=N/C(=N)N &field=TGI returns 35.3 µM

get_value(item= C[C@]12CCC(=O)C=C1CC[C@@H]1[C@@H]2CC[C@]2(C)C(=O)NC(=O)C[C@@H]12 , readout=TGI) returns > 100 µM

Entry CCOC(=O)NC(=O)c1cn(CCOC(=O)CCCCCCCCC(=O)OCCn2cc(C(=O)NC(=O)OCC)c(=O)[nH]c2=O)c(=O)[nH]c1=O — recorded TGI = > 100 µM

Entry under test: CC(C)OC(=O)c1ccc(NCc2cc(O)ccc2O)cc1Cl . Its TGI was 18.6 µM

TGI reading for O=C(NC1=NCC(CN2CCN(c3ccccc3)CC2)O1)Nc1ccccc1 (centres undefined) : > 100 µM

###

- System: UACC-257 melanoma
- experiment: NCI tumour cell line growth inhibition, 48 h; in the data active means GI50 below about 0.43 µM; inactive means the rest
Response enum: active, inactive

- compound: "COc1cc(/C=C/C(=O)c2cccc(Nc3nc(Nc4ccccc4)nc(Nc4ccccc4)n3)c2)cc(OC)c1OC"
  labelClass: "inactive"
- compound: "COc1ccc(CN2c3ccccc3Sc3ccccc32)c(F)c1"
  labelClass: "inactive"
- compound: "COC(=O)c1nc(-c2ccccc2)oc1S(=O)(=O)Cc1ccccc1"
  labelClass: "inactive"

GET /call?item= CN(C)CCN1C(=O)c2ccccc2N(C)c2ccccc21 returns the recorded outcome of this test.
inactive

Outcome logged for CCC(C)(CC(C)(C)C(=O)NCC(=O)NC(Cc1ccccc1)C(=O)NC(Cc1ccccc1)C(=O)NCC(=O)NC1CC(OC2CC(O)(C(=O)CO)Cc3c(O)c4c(c(O)c32)C(=O)c2c(OC)cccc2C4=O)OC(C)C1O)C(=O)NCC(C)O (stereo unspecified) in this assay:
inactive

State the result this test recorded for COc1cc([N+](=O)[O-])c(OC)cc1-c1nc2sc(Cl)cn2c1/C(N)=N/C(=N)N .
inactive

I'd appreciate the recorded outcome for COc1cc(NC(C)CCCNC2CN3CCC2CC3)c2ncccc2c1 (stereo unspecified) from this test.
inactive

###

- Test system: K-562 leukemia
- experiment: NCI tumour cell line growth inhibition, 48 h
assayReadout: TGI

- compound: "O=c1c2c(oc3ccccc13)-c1ccccc1OC2"
  reported: "> 100 µM"
- compound: "C=C1C(=O)O[C@H]2[C@H]1CC/C(COC(=O)NCc1cn(C)c3ccccc13)=C\\CC[C@@]1(C)O[C@@H]21"
  reported: "9.26 µM"
- compound: "O=C1C(Cl)C2(CC(/C=C/c3ccccc3Cl)=NN2c2cccc(S(=O)(=O)O)c2)N1c1nc2ccccc2s1 (stereo not given)"
  reported: "> 100 µM"
- compound: "Nc1c(C(=O)c2cccc(-c3ccncc3)c2)cnn1-c1ccc(F)cc1F"
  reported: "> 25 µM"
- compound: "O=C(O)C(SC(=S)c1ccc(C(=S)SC(C(=O)O)c2ccccc2)cc1)c1ccccc1 (stereo not given)"
  reported: "> 100 µM"

# TGI of CN(O)c1nc(N(C)O)nc(N2CCOCC2)n1 = > 100 µM

response.value for COc1ccc(-c2nc(-c3nc4ccc(OC)cc4[nH]3)c3ccccn23)cc1 (field: TGI) = > 100 µM

// Cn1cc2ccccc2c1-c1nc(F)nc(F)n1 : TGI value = > 100 µM

compound C=Cc1ccc(C)[n+](C[Si](C)(C)O[Si](C)(C)C)c1 , TGI observed: > 100 µM

So, CN[C@@H](C)C(=O)N[C@H](C(=O)N1CCC[C@H]1C(=O)Nc1snnc1-c1ccccc1)C1CCCCC1 ? Its TGI was 57.7 µM
